- System: SNB-19 CNS
- Method Summary: NCI tumour cell line growth inhibition, 48 h
Listing of recorded TGI by entry.

Problem: Assign TGI to the following record: CC(C)N1CCN(c2ccncc2S(=O)(=O)N2CCCCC2)CC1
Result: > 100 µM

Problem: Return reported TGI. Input molecule: Cc1ccc(C2(c3ccc(Cl)cc3)c3ccccc3C3=NCCN32)cc1 (stereo not drawn)
Result: 28.2 µM

Problem: Respond only with TGI recorded for O=C(/C=C/c1ccc(Cl)cc1)c1ccccc(=O)c1O
Result: 11.8 µM

Problem: Please report TGI for the following molecule: COC(=O)c1c(C(=O)OC)c2ccccn2c1-c1cc(OC)c(Br)c(=O)o1
Result: > 100 µM

Problem: Fill in reported TGI for this entry: C=CCNC(=S)N1CC(C)C(=O)Nc2cc(Cl)ccc21 (stereo not drawn)
Result: > 100 µM

Problem: Report measured TGI; entry is CCC[CH2][Sn]([CH2]CCC)([O]c1cccc2cccnc12)[O]c1cccc2cccnc12
Result: 0.873 µM

Problem: Check the records and state TGI for COc1cc2c(c(OC)c1OC)-c1ccc(SC)c(=O)cc1C(CC(=O)Oc1cccc([N+](=O)[O-])c1)C2 (stereo not drawn)
Result: > 100 µM

Problem: Let me know recorded TGI for COc1nc2cccc(C(O)c3ccccc3)c2nc1-c1ccccc1 (stereo not drawn) , thanks.
Result: 51.1 µM

Problem: Give a short answer stating reported TGI for CCCc1cn2c(/C=N/N=C(N)N)c(-c3cccc([N+](=O)[O-])c3)nc2s1 .
Result: 4.86 µM

Problem: Return reported TGI. Input molecule: CCCNC(=S)N/N=C(\C)c1ccc(S(=O)(=O)N(C)c2ccccc2)cc1
Result: > 87.3 µM

###

- Tested on: HOP-18 NSCLC
- Method Summary: NCI tumour cell line growth inhibition, 48 h
Outcome Measure: TGI (µM)
Report as a plain number; the unit µM is understood.

>  <Compound>
CC(C)C(=O)N1Cc2cc(Cl)cc(Cl)c2OC(=O)c2ccccc21

>  <Target Or Test System>
HOP-18 NSCLC

>  <Observed Value>
93.1

$$$$
>  <Compound>
CN(C)CCN1C(=O)c2cccc3cc([N+](=O)[O-])cc(c23)C1=O

>  <Target Or Test System>
HOP-18 NSCLC

>  <Observed Value>
6.4

$$$$
>  <Compound>
CO[C@@H]1C=C[C@@]23c4cc5c(cc4CN(C[C@@H]2O)[C@H]3C1)OCO5

>  <Target Or Test System>
HOP-18 NSCLC

>  <Observed Value>
83.2

$$$$
>  <Compound>
CC(C)N(O)C(=N)c1ccccc1

>  <Target Or Test System>
HOP-18 NSCLC

>  <Observed Value>
0.849

$$$$
>  <Compound>
COc1cc2c3cc1Oc1c(O)c(OC)cc4c1C(Cc1ccc(O)c(c1)Oc1ccc(cc1)CC3N(C)CC2)N(C)CC4 (stereo unspecified)

>  <Target Or Test System>
HOP-18 NSCLC

>  <Observed Value>
45

$$$$

Problem: // Input: CCCCCCCCCCCC(=O)OC[C@H](C[As](=O)(O)O)OC(=O)CCCCCCCCCCC . Output its TGI only.
Result: 20.3

Problem: Quote TGI reported for COc1cc(C2c3cc4c(cc3[C@@H](Nc3cccc(CO)c3)C3COC(=O)[C@H]23)OCO4)cc(OC)c1O (stereo partly specified) please.
Result: 17.4

###

- System: SK-MEL-5 melanoma
- Method Summary: NCI tumour cell line growth inhibition, 48 h
Outcome Measure: TGI

// below: answered compounds
>  <Compound>
Cc1cc(S(=O)(=O)N2CCNNC2=O)c(S)cc1Cl

>  <Outcome Measure>
TGI

>  <Observed Value>
> 100 µM

$$$$
>  <Compound>
Cc1nc(SCC(=O)Nc2ccc(Cl)cc2)c2sc(=S)n(-c3ccccc3)c2n1

>  <Outcome Measure>
TGI

>  <Observed Value>
> 10 µM

$$$$
>  <Compound>
CC(=O)OC1CCC2(C)C(CCC3C2CC(=O)C2(C)C3CC(N3CC3)C2C(C)=O)C1 (configuration not stated)

>  <Outcome Measure>
TGI

>  <Observed Value>
32.3 µM

$$$$
>  <Compound>
CC1(c2sccc2Cl)CC(c2sccc2Cl)=C(C#N)C(=C(C#N)C#N)N1 (configuration not stated)

>  <Outcome Measure>
TGI

>  <Observed Value>
33.3 µM

$$$$
>  <Compound>
O=C(Nc1ccc(Cc2ccccc2)cc1)Nc1nn(C(=O)Nc2ccc(Cc3ccccc3)cc2)c2ccccc12

>  <Outcome Measure>
TGI

>  <Observed Value>
> 100 µM

$$$$

Problem: Respond only with TGI recorded for S=C(N/N=C(\c1ccccc1)c1ccccn1)NC1CCCCC1
Result: > 100 µM

Problem: Check the records and state TGI for COc1ccc(/C(=N\NC(=O)NN)C(c2ccc(OC)cc2)C2(O)C(=O)Nc3c(Cl)cc(Cl)cc32)cc1 (configuration not stated)
Result: > 100 µM

Problem: Tell me its TGI given CSC1(C)C(=O)Nc2c(OCc3ccccc3)cc([N+](=O)[O-])cc21 (configuration not stated) as the entry.
Result: > 100 µM

Problem: Answer with reported TGI of CC1(C)[C@@H]2C[C@H]1[C@@H](Cc1cccc(C[C@H]3c4cc(-c5ccccn5)ncc4[C@H]4C[C@@H]3C4(C)C)c1)c1cc(-c3ccccn3)ncc12
Result: > 38 µM

Problem: State its TGI: NC(N)=NCC1CCCCCCN1 (configuration not stated)
Result: > 100 µM

Problem: Input C=C1CC2(CC(c3ccccc3Cl)OC(c3ccccc3Cl)C2)OC1=O (configuration not stated) , output reported TGI.
Result: 10.4 µM

Problem: Give a short answer stating reported TGI for Cc1ccc(-c2nc3ccccc3c(=O)n2NCC2(O)OCC(O)C(O)C2O)cc1 (configuration not stated) .
Result: > 100 µM

###

- Test system: MDA-N
- Method Summary: NCI tumour cell line growth inhibition, 48 h
Form field: TGI (one value per entry).
Numbers only; they are read as µM.

>  <Compound Structure>
CCCCCCCCCCCC(=O)OC[C@H](C[As](=O)(O)O)OC(=O)CCCCCCCCCCC

>  <Unit>
µM

>  <Observed Value>
14.8

$$$$

Shift focus to the following entry.
Problem: Using MDA-N as the test system, report measured TGI of COc1cc2c3cc1Oc1c(OC)c(OC)cc4c1C(=NCC4)Cc1ccc(cc1)Oc1cc(ccc1O)C[C@H]3N(C)CC2 .
Result: 31

###

- System: OVCAR-8 ovarian
- Method Summary: NCI tumour cell line growth inhibition, 48 h; in the data active means GI50 below about 0.43 µM; inactive means the rest
Answer with one of the outcomes given here: True for active, False for inactive

# example entries with known answers
>  <Compound Structure>
CC(=O)/C(=C/c1ccccc1)C(=O)CC(C)C

>  <Assigned Label>
False

$$$$
>  <Compound Structure>
Cc1c(-c2ccc(C3CCCCC3)cc2)nc2ccc(F)cc2c1C(=O)O

>  <Assigned Label>
True

$$$$
>  <Compound Structure>
O=C1/C(=C/c2ccccc2)CN(C(=O)C(Cl)Cl)C/C1=C\c1ccccc1

>  <Assigned Label>
False

$$$$
>  <Compound Structure>
O=C1C(Cl)=C(Nc2ccc(Nc3ccccc3)c(NC3=C(Cl)C(=O)c4ccccc4C3=O)c2)C(=O)c2ccccc21

>  <Assigned Label>
False

$$$$
>  <Compound Structure>
CCN1CCC(Nc2ccnc3cc(Cl)ccc23)CC1

>  <Assigned Label>
False

$$$$

Problem: Recorded test call requested for CN(C)c1ccc(/C=C/c2ccc(S(N)(=O)=O)cc2)cc1
Result: False

Problem: Look up the recorded call for O=c1oc2ccc(I)cc2c(=O)n1-c1ccc(F)cc1F in this test.
Result: False

###

- Test system: BT-549 breast
- Method Summary: NCI tumour cell line growth inhibition, 48 h
Outcome Measure: TGI (µM)
Write down the numeric answer in µM and omit the unit.

Problem: Return value of TGI for input CN(C)CCN1C(=O)c2cccc3cc([N+](=O)[O-])cc(c23)C1=O , no commentary.
Result: 7.62

Problem: Note TGI for the compound shown: C=C1CC2(CC(c3ccccc3Cl)OC(c3ccccc3Cl)C2)OC1=O (configuration not stated)
Result: 4.59

Problem: Indicate the recorded TGI value for this compound: O=C(/C=C/c1ccc(Cl)cc1)c1ccccc(=O)c1O
Result: 13.5

###

- System: T-47D breast
- Method Summary: NCI tumour cell line growth inhibition, 48 h
Outcome Measure: GI50

>  <Compound>
COc1cc(C2CC(c3cccc(Nc4ccnc5cc(Cl)ccc45)c3)=NN2c2ccc(Cl)cc2)cc(OC)c1OC (stereo not drawn)

>  <Target Or Test System>
T-47D breast

>  <GI50>
0.687 µM

$$$$

Problem: In one line, give reported GI50 of the entry COc1cc2c(c(OC)c1OC)-c1ccc(O)cc1[C@@H](NC(C)=O)CC2 .
Result: 0.0495 µM

Problem: Given NCCc1ccc(S(=O)(=O)F)cc1 , respond with its GI50.
Result: > 100 µM

Problem: Specify GI50 for Oc1ccc(O)c(-c2cn3c(n2)SCC3)c1 and stop.
Result: 17.5 µM

Problem: Consider the compound NC(=NCc1ccccc1)C(N=Nc1ccccc1)C(=O)NCc1ccccc1 (stereo not drawn) and give its recorded GI50.
Result: 13.6 µM

Problem: Provide GI50 value for the following compound: COc1cccc(/C=C/C(=O)c2ccc(SC)cc2)c1OC
Result: 11.6 µM

Problem: Let me know recorded GI50 for CCCCCCCCCCCCCCCCCc1nccn1CCOCCO , thanks.
Result: 2.99 mg/L

Problem: Give the reported GI50 for this compound. CCCc1n(Cc2ccc3ccccc3c2)cc[n+]1Cc1ccc2ccccc2c1
Result: 0.377 µM

Problem: Name the recorded GI50 of the item C[C@@]1(C(=O)O)CCC[C@]2(C)C1CC[C@@]13C[C@@](O)(CC[C@]12O)[C@@]1(CO1)C3 (stereo partly drawn) in your answer.
Result: > 100 µM

Problem: Indicate the recorded GI50 value for this compound: CN(C)CCCN(CCC1CCCCC1)CCC1CCCCC1
Result: 1.57 µM

Problem: State, in one line, measured GI50 of O=c1oc2ccc(I)cc2c(=O)n1-c1ccc(F)cc1F
Result: 1.99 µM

Problem: Supply measured GI50 of CCN1CCC(Nc2ccnc3cc(Cl)ccc23)CC1 in your reply.
Result: 31.3 µM

Problem: Output GI50 of Cc1c(-c2ccc(C3CCCCC3)cc2)nc2ccc(F)cc2c1C(=O)O
Result: 9.65 µM
